Documented kon across a set of binders
# ASSAYED_SYSTEM: T1, hIL10Rb-his (Sino Biological, Catalog#10945) (human, UniProt Q08334 20-220)
# T1 construct: Bought; also called Sino Biological cat#10945-H08H; not shown: C-terminal poly-His tag
# T1 sequence: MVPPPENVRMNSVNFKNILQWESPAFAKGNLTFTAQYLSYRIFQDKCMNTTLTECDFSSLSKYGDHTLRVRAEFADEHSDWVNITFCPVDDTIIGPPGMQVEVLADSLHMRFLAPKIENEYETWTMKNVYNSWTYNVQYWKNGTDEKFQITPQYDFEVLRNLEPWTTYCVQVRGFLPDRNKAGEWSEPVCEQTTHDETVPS
# EXPERIMENTAL_PROTOCOL: SPR Biacore T200; biotinylated dual VHH captured on CAP biotin chip, hIL10Rb-his analyte; 1:1 Langmuir fit
OBSERVABLE: kon (M⁻¹ s⁻¹)

- BINDER: "hIL10Rb_VHH12-hIL10Ra_VHH8 biotin (bispecific antibody, conjugated to biotin (site not stated)) QVQLQESGGGSVQAGGSLRLSCAASGYTYSSYCMGWFRQAPGKEREGVAHIDSDGSTSYADSVKGRFTISKDNAKNTLYLQMNSLKPEDTAMYYCAADPIPGPGYCDGGPNKYWGQGTQVTVSSGGGSQVQLQESGGGSVQAGGSLRLSCAASGYTYSMYCMGWFRQAPGKEREGVAQINSDGSTSYADSVKGRFTISKDNAKNTLYLQMNSLKPEDTAMYYCAADSRVYGGSWYERLCGPYTYEYNYWGQGTQVTVSS"
  RECORDED_RESULT: 440000
- BINDER: "hIL10Rb_VHH1-hIL10Ra_VHH9-biotin (bispecific antibody, conjugated to biotin (site not stated)) QVQLQESGGGSVQAGGSLRLSCAASGYTYSSGCMGWFRQAPGKEREAVAAINSDGSTSYADSVKGRFTISKDNAKNTLYLQMNSLKPEDTAMYYCAAEPYCSGGYPRWSVAEFGYWGQGTQVTVSSGGGSQVQLQESGGGSVQAGGSLRLSCAVSGYAYSTYCMGWFRQAPGKEREGVAAIDSGGSTSYADSVKGRFTISKDNAKNTLYLRMNSLKPEDTAMYYCAAVPPPPDGGSCLFLGPEIKVSKADFRYWGQGTQVTVSS"
  RECORDED_RESULT: 660000
- BINDER: "hIL10Ra_VHH12-hIL10Rb_VHH27 biotin (bispecific antibody, conjugated to biotin (site not stated), also called IL10 VHH DR509 biotin; DR509) QVQLQESGGGSVQAGGSLRLSCTVSGYTYSSNCMGWFRQAPGKEREGVATIYTGGGNTYYADSVKGRFTISQDNAKNTVYLQMNNLKPEDTAMYYCAAEPLSRVYGGSCPTPTFDYWGQGTQVTVSSGGGSQVQLQESGGGSVQTGGSLRLSCAASGYTYLRGCMGWFRQAPGKEREGVAVMDVVGDRRSYIDSVKGRFTISRDNAANSVYLQMDNLKPEDTAMYYCTAGPNCVGWRSGLDYWGQGTQVTVSS"
  RECORDED_RESULT: "1.6e+06"
- BINDER: "hIL10Ra_VHH17-hIL10Rb_VHH16 biotin (bispecific antibody, conjugated to biotin (site not stated)) QVQLQESGGGSVQAGGSLRLSCAASGYSNCSYDMTWYRQAPGKEREFVSAIHSDGSTRYADSVKGRFFISQDNAKNTVYLQMNSLKPEDTAMYYCKTDPLHCRAHGGSWYSVRANYWGQGTQVTVSSGGGSQVQLQESGGGSVEAGGSLRLSCAASGYTHSSYCMGWFRQAPGKEREGVAAIDVDGSTTYADSVKGRFTISKDNAKNTLYLQMNSLKPEDTGMYYCAAEFADCSSNYFLPPGAVRYWGQGTQVTVSS"
  RECORDED_RESULT: 160000
